Target or test system: T1, human Claudin18.2 (human)
T1 construct: also called CLDN18.2
Experiment description: FACS, Claudin18.2-HEK293 cells
Recorded EC50 for the following binders
Respond numerically; units are nM and should not be typed.

chimeric 412B6E4 (antibody, human IgG1, kappa, V domains shown, chimeric, human IgG1/kappa constant regions; also called 412B6E4-Chimeric) VH: DVQLVESGGGLVQPGGSRKLSCAASGFTFSSFGVHWVRQAPEKGLEWVAYISSGSSTIYYAHSVKGRFTISRDNPKNTLFLQMTSLGSEDTATYYCARFYYGNSFAYWGQGTLVTVSA VL: DIVMTQSPSSLTVTAGEKVTMSCKSSQSLLNSGNQKNYLTWYQQKPGQPPKMLIYWASTRESGVPDRFTGSGSGTDFTLTISSVQAEDLAVYYCQNAYTYPLTFGAGTRLELKR
0.677
chimeric 417A6F11 (antibody, human IgG1, kappa, V domains shown, chimeric, human IgG1/kappa constant regions) VH: EVQLQQSGPELVKPGASMKISCKASGYSFTGYTMNWVKQSHGKNLEWIGLINPYNGGTSYNQKFKGKATLTVDKSSSTAYMELLSLTSEDSAVYYCARGDYWGQGTTLTVSS VL: DIVMTQSPSSLTVTAGEKVTMSCKSSQSLLNSGNQKNYLTWYQQKPGQPPKLLIYWASTRESGVPDRFTGSGSGTDFTLTISSVQAEDLAVYYCQNDYSYPTFGAGTKLELKR
2.48

Using the record for chimeric 393C2C5 (antibody, human IgG1, kappa, V domains shown, chimeric, human IgG1/kappa constant regions; also called 393C2C5A) VH: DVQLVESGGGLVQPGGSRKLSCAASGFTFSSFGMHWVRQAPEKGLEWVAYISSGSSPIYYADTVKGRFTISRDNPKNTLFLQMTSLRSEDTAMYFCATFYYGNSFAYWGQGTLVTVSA VL: DIVMTQSPSSLTVTAGEKVTMSCKSSQTLLNSGNQKNYLTWYQQKSGQPPKLLIYWASTRESGVPDRFTGSGSGTDFTLTISSVQAEDLAVYYCQNAYSYPVTFGSGTKVELKR , state its measured EC50.
0.687
